# STUDY_TARGET: HERG (Homo sapiens, UniProt Q12809)
# Sequence (Q12809 whole entry): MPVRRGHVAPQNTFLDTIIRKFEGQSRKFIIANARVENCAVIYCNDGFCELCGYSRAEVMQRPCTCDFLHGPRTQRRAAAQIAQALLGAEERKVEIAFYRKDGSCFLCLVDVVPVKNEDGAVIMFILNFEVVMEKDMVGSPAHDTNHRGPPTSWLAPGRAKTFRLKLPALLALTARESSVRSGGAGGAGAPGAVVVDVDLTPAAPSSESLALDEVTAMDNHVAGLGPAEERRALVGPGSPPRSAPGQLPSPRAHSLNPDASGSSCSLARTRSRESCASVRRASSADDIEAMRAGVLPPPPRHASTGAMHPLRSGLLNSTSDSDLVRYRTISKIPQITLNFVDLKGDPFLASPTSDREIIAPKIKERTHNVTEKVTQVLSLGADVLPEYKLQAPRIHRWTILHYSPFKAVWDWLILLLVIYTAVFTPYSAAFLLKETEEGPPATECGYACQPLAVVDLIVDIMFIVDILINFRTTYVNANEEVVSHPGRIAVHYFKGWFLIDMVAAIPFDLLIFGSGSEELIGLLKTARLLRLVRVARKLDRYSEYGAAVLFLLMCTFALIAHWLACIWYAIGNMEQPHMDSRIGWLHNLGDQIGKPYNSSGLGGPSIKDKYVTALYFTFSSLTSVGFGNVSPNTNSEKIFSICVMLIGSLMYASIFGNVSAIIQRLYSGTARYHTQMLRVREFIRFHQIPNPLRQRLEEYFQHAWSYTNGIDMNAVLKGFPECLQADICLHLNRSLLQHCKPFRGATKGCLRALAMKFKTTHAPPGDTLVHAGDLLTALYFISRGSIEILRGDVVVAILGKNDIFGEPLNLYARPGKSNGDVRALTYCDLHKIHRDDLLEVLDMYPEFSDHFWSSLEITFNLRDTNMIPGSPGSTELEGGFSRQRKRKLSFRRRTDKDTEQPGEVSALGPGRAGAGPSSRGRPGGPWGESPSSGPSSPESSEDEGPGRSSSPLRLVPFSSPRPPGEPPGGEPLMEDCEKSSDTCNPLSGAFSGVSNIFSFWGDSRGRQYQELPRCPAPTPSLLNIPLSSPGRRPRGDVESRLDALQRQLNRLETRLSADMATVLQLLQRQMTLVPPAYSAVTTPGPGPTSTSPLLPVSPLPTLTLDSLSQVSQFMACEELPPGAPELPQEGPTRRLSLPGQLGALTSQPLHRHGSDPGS
# ASSAY_OVERVIEW: Patch-clamp inhibition of cloned ion channel current in transfected HEK cells: HERG
# STATED_CONDITIONS: whole-cell patch clamp
Structures can show the parent of a compound that is named as a salt.
# pIC50 values compiled below
The value called pIC50 is obtained by taking minus log10 of the concentration in mol/L.

Ask: Please report the recorded pIC50 for Cc1nc2c(OCC3(c4ccccc4)CC3)cccn2c1CO [Compound 31, MONOHYDROCHLORIDE] .
Result: 5.52

###

Below, each entry is listed with its recorded IC50.
# STUDY_TARGET: HERG (Homo sapiens, UniProt Q12809)
# ASSAY_OVERVIEW: Patch-clamp inhibition of cloned ion channel current in transfected HEK cells: HERG
# STATED_CONDITIONS: whole-cell patch clamp
Structures can show the parent of a compound that is named as a salt.
Reply with just the number (in nM).

Below, each entry is followed by its recorded IC50 result.
# COMPOUND, UNIT_LABEL, IC50
measured = [
    ("Cc1cn2c(C)ccc(OCC3(c4ccccc4)CC3)c2n1 [Compound 33, MONOHYDROCHLORIDE]", "nM", 900),
    ("Cc1nc2c(OCC3(c4ccccc4)CC3)cccn2c1N [Compound 43, MONOHYDROCHLORIDE]", "nM", 700),
    ("FC(F)(F)c1cn2cccc(OCCCc3ccc(Cl)cc3Cl)c2n1 [Compound 15, MONOHYDROCHLORIDE]", "nM", 1000),
]

Ask: Record request: IC50 value, item Cc1nc2c(OCCCc3ccc(Cl)cc3Cl)cccn2c1Cl
Result: 1000

Ask: Reported IC50 for Cc1nc2c(OCC3(c4ccccc4)CC3)cccn2c1CN(C)C [Compound 40, DIHYDROCHLORIDE] : what is it?
Result: 1000

###

Reported IC50 values for a set of compounds
# STUDY_TARGET: Kv1.5 (Homo sapiens, UniProt P22460)
# Sequence (P22460 whole entry): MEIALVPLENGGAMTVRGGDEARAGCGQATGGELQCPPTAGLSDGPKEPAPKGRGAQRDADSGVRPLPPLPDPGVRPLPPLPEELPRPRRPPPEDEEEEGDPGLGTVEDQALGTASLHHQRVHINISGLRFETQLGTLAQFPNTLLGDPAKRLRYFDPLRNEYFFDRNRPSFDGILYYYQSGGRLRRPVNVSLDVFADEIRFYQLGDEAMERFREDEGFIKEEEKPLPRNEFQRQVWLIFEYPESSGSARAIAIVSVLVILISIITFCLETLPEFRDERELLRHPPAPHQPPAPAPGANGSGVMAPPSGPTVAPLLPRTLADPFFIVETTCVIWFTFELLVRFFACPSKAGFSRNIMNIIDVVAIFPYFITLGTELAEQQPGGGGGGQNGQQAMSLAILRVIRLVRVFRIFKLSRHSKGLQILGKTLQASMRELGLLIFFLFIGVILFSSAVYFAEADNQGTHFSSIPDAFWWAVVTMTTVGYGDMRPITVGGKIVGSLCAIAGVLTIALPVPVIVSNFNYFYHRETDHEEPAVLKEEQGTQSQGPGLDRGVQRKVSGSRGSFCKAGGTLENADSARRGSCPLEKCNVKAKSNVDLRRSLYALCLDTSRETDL
# ASSAY_OVERVIEW: Patch-clamp inhibition of cloned ion channel current in transfected HEK cells: Kv1.5
# STATED_CONDITIONS: steady-state current, -80 mV to +60 mV
Where a name gives a salt, the structure may show the parent alone.
The reply should contain only the number, in µM.

# COMPOUND, IC50, µM
rows = [
    ("Cc1nc2c(OCCCc3ccc(Cl)cc3Cl)cccn2c1Cl", 0.4),
    ("Cc1cn2c(C)ccc(OCCCc3ccc(Cl)cc3Cl)c2n1 [Compound 34, MONOHYDROCHLORIDE]", 1),
    ("Cc1cn2cccc(OCCCc3c(Cl)cccc3Cl)c2n1 [Compound 6, MONOHYDROCHLORIDE]", 0.8),
    ("Cc1nc2c(OCCCc3ccc(Cl)cc3Cl)cccn2c1CN(C)C [Compound 25, DIHYDROCHLORIDE]", 8),
    ("Cc1cn2c(C)ccc(OCC3(c4ccccc4)CC3)c2n1 [Compound 33, MONOHYDROCHLORIDE]", 3),
]

Ask: Missing value: IC50, Kv1.5 (Homo sapiens, UniProt P22460), entry Cc1nc2c(OCC3(c4ccccc4)CC3)cccn2c1Cl [Compound 39, MONOHYDROCHLORIDE] . Fill in?
Result: 0.7

Ask: Request body: readout IC50, system Kv1.5 (Homo sapiens, UniProt P22460), query Cc1nc2c(OCCCc3ccc(Cl)cc3Cl)cccn2c1CO . Return the value.
Result: 2

Ask: Record lookup: for Kv1.5 (Homo sapiens, UniProt P22460), what IC50 belongs to Cc1cn2ccc(C)c(OCC3(c4ccccc4)CC3)c2n1 [Compound 17, MONOHYDROCHLORIDE] ?
Result: 4

Ask: Tell me reported IC50 for COc1ccc(CCCOc2cccn3cc(C)nc23)cc1OC , tested with Kv1.5 (Homo sapiens, UniProt P22460).
Result: 6

Ask: Any idea what IC50 came out for Cc1cn2c(C)ccc(OCCCc3ccccc3)c2n1 [Compound 32, MONOHYDROCHLORIDE] on Kv1.5 (Homo sapiens, UniProt P22460)?
Result: 4

###

# STUDY_TARGET: HERG (Homo sapiens, UniProt Q12809)
# Construct: expressed in transfected cells; host or cells: HEK cells, transient transfection, vector pCDNA3
# ASSAY_OVERVIEW: Patch-clamp inhibition of cloned ion channel current in transfected HEK cells: HERG
# Assay type: cell-based
# STATED_CONDITIONS: whole-cell patch clamp
Structures can show the parent of a compound that is named as a salt.
Entries and their IC50 values follow.
Please state the figure in nM; there is no need to write the unit.

Ask: Which IC50 is reported for this compound? Cc1nc2c(OCCCc3ccc(Cl)cc3Cl)cccn2c1Br [Compound 19, MONOHYDROCHLORIDE]
Result: 400

Ask: Which measured IC50 value corresponds to CC(C)c1cn2cccc(OCCCc3ccc(Cl)cc3Cl)c2n1 [Compound 20, MONOHYDROCHLORIDE] ?
Result: 100

Ask: Value lookup for IC50; key = CNCc1c(C)nc2c(OCCCc3ccc(Cl)cc3Cl)cccn12 [Compound 24, DIHYDROCHLORIDE]
Result: 200

Ask: Query (compound): Cc1cn2cccc(OCc3ccccc3C(F)(F)F)c2n1 [Compound 7, MONOHYDROCHLORIDE] ; field requested: IC50
Result: 800

Ask: Give its IC50 value. Item: Cc1cn2c(C)ccc(OCCCc3ccccc3)c2n1 [Compound 32, MONOHYDROCHLORIDE]
Result: 300

Ask: Which IC50 value is on record for Cc1cn2ccc(C)c(OCC3(c4ccccc4)CC3)c2n1 [Compound 17, MONOHYDROCHLORIDE] ?
Result: 1000

Ask: # query: IC50 of entry Clc1ccc(CCCOc2cccn3c4c(nc23)CCCC4)c(Cl)c1 [Compound 27]
Result: 100

Ask: Value lookup for IC50; key = CCOC(=O)c1c(C)nc2c(OCC3(c4ccccc4)CC3)cccn12 [Compound 30]
Result: 2000

Ask: Entry Cc1cn2cccc(OCCC(c3ccccc3)c3ccccc3)c2n1 [Compound 12, MONOHYDROCHLORIDE] has what IC50?
Result: 4

Ask: Field request: IC50 | item: Cc1cn2cccc(OCCCC3CCCCC3)c2n1 [Compound 9, MONOHYDROCHLORIDE]
Result: 50

Ask: // IC50 lookup, key: Cc1cn2ccc(C)c(OCCCc3ccccc3)c2n1 [Compound 18, MONOHYDROCHLORIDE]
Result: 1000

###

# STUDY_TARGET: Kv1.5 (Homo sapiens)
# ASSAY_OVERVIEW: Patch-clamp inhibition of cloned ion channel current in transfected HEK cells: Kv1.5
# STATED_CONDITIONS: steady-state current, -80 mV to +60 mV
Counter-ions that a name gives are not always drawn.
PROPERTY_MEASURED: pIC50
Quick note: pIC50 means taking -log10 of the concentration in moles per liter.

# COMPOUND, OBSERVED_VALUE
rows = [
    ("FC(F)(F)c1cn2cccc(OCC3(c4ccccc4)CC3)c2n1 [Compound 23]", 5.52),
    ("Cc1nc2c(OCC3(c4ccccc4)CC3)cccn2c1Br [Compound 28]", 6.10),
    ("Cc1cn2cccc(OCc3ccc(Cl)cc3Cl)c2n1 [Compound 8, MONOHYDROCHLORIDE]", 6.10),
    ("Clc1ccc(CCCOc2cccn3c4c(nc23)CCC4)c(Cl)c1 [Compound 29]", 6.15),
    ("Cc1nc2c(OCC3(c4ccccc4)CC3)cccn2c1N [Compound 43, MONOHYDROCHLORIDE]", 5.80),
    ("Cc1nc2c(OCC3(c4ccccc4)CC3)cccn2c1CO [Compound 31, MONOHYDROCHLORIDE]", 5.40),
    ("Cc1cn2cccc(OCCCc3ccc(Cl)cc3Cl)c2n1 [Compound 1]", 6.52),
    ("CC(C)c1cn2cccc(OCC3(c4ccccc4)CC3)c2n1 [Compound 38, MONOHYDROCHLORIDE]", 6.40),
    ("CC(=O)Nc1c(C)nc2c(OCCCc3ccc(Cl)cc3Cl)cccn12 [Compound 41, MONOHYDROCHLORIDE]", 5.30),
    ("CC(C)c1cn2cccc(OCCCc3ccc(Cl)cc3Cl)c2n1 [Compound 20, MONOHYDROCHLORIDE]", 6.70),
]

Ask: // pIC50 lookup, key: Cc1cn2cccc(OCc3ccccc3C(F)(F)F)c2n1 [Compound 7, MONOHYDROCHLORIDE]
Result: 5.30

Ask: Item under review: CCc1cn2cccc(OCCCc3ccc(Cl)cc3Cl)c2n1 [Compound 4, MONOHYDROCHLORIDE] . Reported pIC50?
Result: 7.00

Ask: # get_value(readout='pIC50', item= Cc1cn2cccc(OCCCCCc3ccccc3)c2n1 [Compound 10, MONOHYDROCHLORIDE] )
Result: 6.10

Ask: Which pIC50 is reported for this compound? Cc1nc2c(OCCCc3ccc(Cl)cc3Cl)cccn2c1Br [Compound 19, MONOHYDROCHLORIDE]
Result: 6.52

Ask: GET /values?readout=pIC50&item= CNCc1c(C)nc2c(OCCCc3ccc(Cl)cc3Cl)cccn12 [Compound 24, DIHYDROCHLORIDE]
Result: 5.70
